# viability, T/C listing for each entry below
system: 755483-174-R-J1-PDC complex spheroid growth, percent test/control; test: Anticancer human tumor 755483-174-R-J1-PDC patient-derived rhabdomyosarcoma cell line growth inhibition [Asc]; conditions: second compound 0.0949 µM; first compound 0.01 µM; stronger effect = lower value;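 note: spheroids exposed to compounds for seven days before readout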
measure: viability, T/C

compound="COc1c(OCCCN2CCOCC2)ccc2c3n(c(=NC(=O)c4cnc(N)nc4)nc12)CCN3 + CCN1C(C(=O)NC23CCC(C(=O)O)(CC2)CC3)C(c2cccc(Cl)c2F)C2(C(=O)Nc3cc(Cl)ccc32)C12CCCCC2" experimentaltarget="755483-174-R-J1-PDC complex spheroid growth, percent test/control" recordedresult=39.5%
compound="CNC(C)C(=O)NC1CN(S(=O)(=O)c2cccc(S(=O)(=O)N3CCC4CCC(C(=O)NC(c5ccccc5)c5ccccc5)N4C(=O)C(NC(=O)C(C)NC)C3)c2)CCC2CCC(C(=O)NC(c3ccccc3)c3ccccc3)N2C1=O (stereo unspecified) + CCN1C(C(=O)NC23CCC(C(=O)O)(CC2)CC3)C(c2cccc(Cl)c2F)C2(C(=O)Nc3cc(Cl)ccc32)C12CCCCC2" experimentaltarget="755483-174-R-J1-PDC complex spheroid growth, percent test/control" recordedresult=64.6%
compound="CCN1CCN(Cc2ccc(Nc3ncc(F)c(-c4cc(F)c5nc(C)n(C(C)C)c5c4)n3)nc2)CC1 + CCN1C(C(=O)NC23CCC(C(=O)O)(CC2)CC3)C(c2cccc(Cl)c2F)C2(C(=O)Nc3cc(Cl)ccc32)C12CCCCC2" experimentaltarget="755483-174-R-J1-PDC complex spheroid growth, percent test/control" recordedresult=116%
compound="Cn1ncnc1[C@H]1c2n[nH]c(=O)c3cc(F)cc(c23)N[C@@H]1c1ccc(F)cc1 + CCN1C(C(=O)NC23CCC(C(=O)O)(CC2)CC3)C(c2cccc(Cl)c2F)C2(C(=O)Nc3cc(Cl)ccc32)C12CCCCC2" experimentaltarget="755483-174-R-J1-PDC complex spheroid growth, percent test/control" recordedresult=54.1%
compound="O=C(c1ccc(F)c(F)c1Nc1ccc(I)cc1F)N1CC(O)([C@@H]2CCCCN2)C1 + CCN1C(C(=O)NC23CCC(C(=O)O)(CC2)CC3)C(c2cccc(Cl)c2F)C2(C(=O)Nc3cc(Cl)ccc32)C12CCCCC2" experimentaltarget="755483-174-R-J1-PDC complex spheroid growth, percent test/control" recordedresult=124%
compound="NC1CCC(NC2CC2c2ccccc2)CC1 (stereo unspecified) + CCN1C(C(=O)NC23CCC(C(=O)O)(CC2)CC3)C(c2cccc(Cl)c2F)C2(C(=O)Nc3cc(Cl)ccc32)C12CCCCC2" experimentaltarget="755483-174-R-J1-PDC complex spheroid growth, percent test/control" recordedresult=96.4%
